# system_name: FMDV O/18074 146S antigen (Foot-and-mouth disease virus serotype …, strain)

binder	binding result
pOA-16 (antibody, V domains shown) VH: EEKLVESGGGLVQPGGSLTLSCVGSGFDFSLYNMIWVRQAPGKGLEWLAGIWESGVQDSYPESMKGRFTISRDNSQNTAYLKIHILGMEDTARYYCASGARCGEDRCIDLWGPGVEVVVSS VL: QTVIQEPAMKVSPGGTVTLSCAFSSGSVTTSNYPSWFQHTPGQPPRLLMYRTSYRPTGVNSRFSGAISGNKATLTITGAQTTDEADYYCALFLNTITIPFGGGTHLTVL	binds
pOA-4 (antibody, V domains shown) VH: EEKLVESGGGLVRPGGSLRLSCVGSGFPWNTYSVRWVRQAPMKGLEFVAYIFKNDNDRDYASSVKGRFTISRDNSQNTAYLQMNNLRTEDTAHYYCLLANKYWGPGVEVVVSS VL: AVVLTQTPVSLTVSVGEPASISCSSSQSLVEDDGSSVLNWYLQKPGQSPQRLIYSAVGRDTGVPDRFSGSGSGTEFTLKISRVEAEDAGVYYCQQSRFSTSFGAGSKLELK	binds
pOA-12 (antibody, V domains shown) VH: EEKLVESGGGLVQPGGSLTLSCVGSGFYFSNYEIVWVRQVRGGGLEWISYVSNGGARTSYALSVKGRFTIFRDNSRNTVDLHLNNLRIEDTARYYCVGGGQCLGDNCYSMALWGPGVEVFVSS VL: QTVIQEPAMSVSLGGTVTLTCAFTSGSVTKTNYPSWFQQTPGQPPRQLIYHTDNQATGVPSRFSGAISGNKATFTITGAQAEDEADYFCCLYRGTTNVPFGGGTRLTVL	binds
